The measurements presented in this section are drawn from ChEMBL document CHEMBL4400540.

Target: Cytochrome P450 2D6 (Homo sapiens, UniProt P10635)
Sequence (P10635 whole entry): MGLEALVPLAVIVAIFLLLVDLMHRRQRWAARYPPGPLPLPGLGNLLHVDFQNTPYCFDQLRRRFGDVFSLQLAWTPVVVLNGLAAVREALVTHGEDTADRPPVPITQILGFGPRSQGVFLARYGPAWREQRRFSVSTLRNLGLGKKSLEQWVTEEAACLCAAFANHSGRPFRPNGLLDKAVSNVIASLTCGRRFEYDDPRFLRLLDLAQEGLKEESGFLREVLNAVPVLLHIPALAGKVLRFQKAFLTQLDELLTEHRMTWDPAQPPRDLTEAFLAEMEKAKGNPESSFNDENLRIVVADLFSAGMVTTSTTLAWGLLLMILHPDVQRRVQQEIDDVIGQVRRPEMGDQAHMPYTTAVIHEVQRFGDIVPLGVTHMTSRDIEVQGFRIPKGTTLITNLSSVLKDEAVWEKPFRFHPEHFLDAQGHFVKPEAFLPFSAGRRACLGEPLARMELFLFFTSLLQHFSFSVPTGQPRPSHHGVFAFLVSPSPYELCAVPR
pIC50: −log10 of the molar value.

| given-smiles | pIC50 |
| --- | --- |
| O=C(Nc1ccncc1)c1cn(Cc2ccc(Cl)c(Cl)c2)c(=O)c2cnn(C3CCNCC3)c12 | 5.80 |

* * *

Test: Solubility of compound by turbidimetric method
Type: physicochemical
value-type: solubility kinetic

| given-smiles | endpoint-result |
| --- | --- |
| O=C(Nc1ccncc1)c1cn(Cc2ccc(Cl)c(Cl)c2)c(=O)c2cnn(C3CCNCC3)c12 | 65 µM |

* * *

Biological target: Fascin (Homo sapiens, UniProt Q16658)
pKd: −log10 of the molar value.

| given-smiles | tested-system | pKd |
| --- | --- | --- |
| O=C(Nc1ccncc1)c1cn(Cc2ccc(Cl)c(Cl)c2)c(=O)c2cnn(C3CCNCC3)c12 | Fascin (Homo sapiens, UniProt Q16658) | 7.30 |
